Consider the following compounds; for each one, report its Pre-emerge crop damage SOY (phytotoxicity rating).
System: soybean (Glycine max L., var. Pella 86, SOY)
Assay: Pre-emerge test, crop damage soybean
Type: in vivo
Settings: pre-emerge, 250 g ai/ha, 14 days after application, rating scale 0-100 (0 no damage, 100 complete death)
Please state the value as a number alone, without comment.

Ask: Give the measured Pre-emerge crop damage SOY (phytotoxicity rating) of CC1C(=O)Nc2c(-c3nn(C)c(C(F)(F)F)c3Cl)c(F)cc3c2N1C(=O)C(C)(C)O3 (centres unmarked) .
Reply: 55

Ask: Name the recorded Pre-emerge crop damage SOY (phytotoxicity rating) for CC1C(=O)Nc2c(-c3ncc(C(F)(F)F)cc3Cl)c(F)cc3c2N1C(=O)CO3 (centres unmarked) .
Reply: 99

Ask: Any idea what Pre-emerge crop damage SOY (phytotoxicity rating) was measured for CC(C)C1C(=O)Nc2c(N3C(=O)C4=C(CCCC4)C3=O)c(F)cc3c2N1C(=O)CO3 (centres unmarked) ?
Reply: 0

Ask: Could you tell me which Pre-emerge crop damage SOY (phytotoxicity rating) is on file for CCC1C(=O)Nc2c(-c3nn(C)c(OC(F)F)c3Cl)c(F)cc3c2N1C(=O)C(C)(C)O3 (centres unmarked) ?
Reply: 25

Ask: Please report the recorded Pre-emerge crop damage SOY (phytotoxicity rating) for CCC1C(=O)Nc2c(-c3ncc(C(F)(F)F)cc3Cl)c(F)cc3c2N1C(=O)CO3 (centres unmarked) .
Reply: 35

Ask: Return reported Pre-emerge crop damage SOY (phytotoxicity rating); argument: CC1C(=O)N(C)c2c(-c3nn(C)c(OC(F)F)c3Cl)c(F)cc3c2N1C(=O)CO3 (centres unmarked)
Reply: 10

Ask: Give the measured Pre-emerge crop damage SOY (phytotoxicity rating) of CC1Oc2cc(F)c(-c3nn(C)c(C(F)(F)F)c3Cl)c3c2N(C1=O)C(C(C)C)C(=O)N3 (mixture of isomers) .
Reply: 50

Ask: // returns reported Pre-emerge crop damage SOY (phytotoxicity rating) for input CC1C(=O)Nc2c(-c3nn(C)c(OC(F)F)c3Cl)c(F)cc3c2N1C(=O)C(C)(C)O3 (centres unmarked)
Reply: 40

This collection of values is drawn from patent US6770596B1.
